Test: MT4 cytotoxicity (CC50)
Details: human, MT4 cells, MT4 CC50, Table 4
reportedProperty: CC50 (nM)
Write the answer as a number in nM, unit excluded.

CCCCCCCC/C=C\CCCCCCCCOC[C@H](COP(=O)(O)OC[C@H]1O[C@@](C#N)(c2ccc3c(N)ncnn23)[C@H](O)[C@@H]1O)OCc1cc(F)cc(C#N)c1 = 730
CCCCCCCCCCCCCCCCCCOC[C@H](COP(=O)(O)OC[C@H]1O[C@@](C#N)(c2ccc3c(N)ncnn23)[C@H](O)[C@@H]1O)OCc1cc(C#N)ccc1OC = 2550
CCCCCCCCCCCCCCCCCCOC[C@H](COP(=O)(O)OC[C@H]1O[C@@](C#N)(c2ccc3c(N)ncnn23)[C@H](O)[C@@H]1O)OCc1ccc(C#N)cn1 = 703
CCCCCCCCCCCCCCCCCCOC[C@H](COP(=O)(O)OC[C@H]1O[C@@](C#N)(c2ccc3c(N)ncnn23)[C@H](O)[C@@H]1O)Oc1ncccc1OC = 454

Please find the next molecule below.
The molecule identified as CCCCCCCCCCCCCCCCCCOC[C@H](COP(=O)(O)OC[C@H]1O[C@@](C#N)(c2ccc3c(N)ncnn23)[C@H](O)[C@@H]1O)OCc1ccc(OC)c(C#N)c1 registered its CC50 at 1460

----------
Experiment: A549 cytotoxicity analysis (CellTiter-Glo)
Assay type: cell-based
Settings: human; A549 cells, 48 hours; Table 1
Protocol: The cytotoxicity of compounds was determined in A549 cells in the following manner. Compounds (40 nL) were spotted onto 384-well Grenier plates prior to seeding 5000 A549 cells/well in a volume of 40 μL culture medium. The plates were incubated at 37° C. for 48 hours with 5% CO2. On day 2, 40 μL of CellTiter-Glo (Promega) was added and mixed 5 times. […]
Quick list: CC50 at 48 h per entry.

CCCCCCCCCCCCCCCCCCOC[C@H](COP(=O)(O)OC[C@H]1O[C@@](C#N)(c2ccc3c(N)ncnn23)[C@H](OC(=O)C(C)C)[C@@H]1OC(=O)C(C)C)OCc1ccccc1 [Example 13] = 15 µM
CCCCCCCCCCCCCCCCCCOC[C@H](COP(=O)(O)OC[C@H]1O[C@@](C#N)(c2ccc3c(N)ncnn23)[C@H](O)[C@@H]1O)OCc1cc(F)cc(C#N)c1 [Example 16] = 18 µM
CCCCCCCCCCCCCCCCCCOC[C@H](COP(=O)(O)OC[C@H]1O[C@@](C#N)(c2ccc3c(N)ncnn23)[C@H](O)[C@@H]1O)OCc1ccc(-c2ccccc2)cc1 [Example 2] = > 50 µM
CCCCCCCCCCCCCCCCCCOC[C@H](COP(=O)(O)OC[C@H]1O[C@@](C#N)(c2ccc3c(N)ncnn23)[C@H](O)[C@@H]1O)OCc1ccc2ccccc2c1 [Example 4] = 17 µM

The compound identified as CCCCCCCCCCCCCCCCCCOC[C@H](COP(=O)(O)OC[C@H]1O[C@@](C#N)(c2ccc3c(N)ncnn23)[C@H](O)[C@@H]1O)OCc1ccc(OC)cc1 [Example 10] registered its CC50 at 48 h at 20 µM

----------
Assay: MT4 cytotoxicity (CC50)
Details: human, MT4 cells, MT4 CC50, Table 2a
reportedProperty: CC50 (nM)
Write the answer as a number in nM, unit excluded.

CCCCCCCCCCCCCCCCCCOC[C@H](COP(=O)(O)OC[C@H]1O[C@@](C#N)(c2ccc3c(N)ncnn23)[C@H](O)[C@@H]1O)OCc1ccccc1F = 2220

The compound identified as CCCCCCCCCCCCCCCCCCOC[C@H](COP(=O)(O)OC[C@H]1O[C@@](C#N)(c2ccc3c(N)ncnn23)[C@H](O)[C@@H]1O)OCc1ccc(C)cc1 registered its CC50 at 2240

The compound identified as CCCCCCCCCCCCCCCCCCOC[C@H](COP(=O)(O)OC[C@H]1O[C@@](C#N)(c2ccc3c(N)ncnn23)[C@H](O)[C@@H]1O)OCc1ccc2c(c1)CCC2 registered its CC50 at 17900

The compound identified as CCCCCCCCCCCCCCCCCCOCCCOP(=O)(O)OC[C@H]1O[C@@](C#N)(c2ccc3c(N)ncnn23)[C@H](O)[C@@H]1O registered its CC50 at 19600

The compound identified as CCCCCCCCCCCCCCCCCCOC[C@H](COP(=O)(O)OC[C@H]1O[C@@](C#N)(c2ccc3c(N)ncnn23)[C@H](O)[C@@H]1O)OCc1ccc(OC)c(Cl)c1 registered its CC50 at 951

The compound identified as CCCCCCCCCCCCCCCCCCOC[C@H](COP(=O)(O)OC[C@H]1O[C@@](C#N)(c2ccc3c(N)ncnn23)[C@H](O)[C@@H]1O)OCc1cccc(F)c1 registered its CC50 at 4420

The compound identified as CCCCCCCCCCCCCCCCCCOC[C@H](COP(=O)(O)OC[C@H]1O[C@@](C#N)(c2ccc3c(N)ncnn23)[C@H](O)[C@@H]1O)OCc1ccsc1 registered its CC50 at 13200

The compound identified as CCCCCCCCCCCCCCCCCCOC[C@H](COP(=O)(O)OC[C@H]1O[C@@](C#N)(c2ccc3c(N)ncnn23)[C@H](O)[C@@H]1O)OCc1cc(F)ccc1C#N registered its CC50 at 2140

----------
Quick list: CC50 per entry.
Experiment: MT4 cytotoxicity (CC50)
Settings: human, MT4 cells, MT4 CC50, Table 4

In the examples that follow, each entry is paired with its recorded CC50.
CCCCCCCCCCCCCCCCCCOC[C@H](COP(=O)(O)OC[C@H]1O[C@@](C#N)(c2ccc3c(N)ncnn23)[C@H](O)[C@@H]1O)Oc1cc(OC)ccn1 = 383 nM
CCCCCCCCCCCCCCOC[C@H](COP(=O)(O)OC[C@H]1O[C@@](C#N)(c2ccc3c(N)ncnn23)[C@H](O)[C@@H]1O)OCc1ccc(C#N)cc1F = 5110 nM
CCCCCCCCCCCCCCCCCCOC[C@H](COP(=O)(O)OC[C@H]1O[C@@](C#N)(c2ccc3c(N)ncnn23)[C@H](O)[C@@H]1O)OCc1ccc(Cl)c(C#N)c1 = 713 nM

Please find the next compound below.
The compound identified as CCCCCCCCCCCCCCCOC[C@H](COP(=O)(O)OC[C@H]1O[C@@](C#N)(c2ccc3c(N)ncnn23)[C@H](O)[C@@H]1O)OCc1ccc(C#N)cc1F registered its CC50 at 4500 nM

----------
Test: MT4 cytotoxicity (CC50)
Conditions: human, MT4 cells, MT4 CC50, Table 4
Quick list: CC50 per entry.
Write the answer as a number in nM, unit excluded.

In the examples that follow, each entry is paired with its recorded CC50.
CCCCCCCCCCCCCCCCCCOC[C@H](COP(=O)(O)OC[C@H]1O[C@@](C#N)(c2ccc3c(N)ncnn23)[C@H](O)[C@@H]1O)Oc1cncc(C#N)c1 [Example 84] = 212
CCCCCCCCCCCCCCCCCCOC[C@H](COP(=O)(O)OC[C@H]1O[C@@](C#N)(c2ccc3c(N)ncnn23)[C@H](O)[C@@H]1O)OCc1cc(C#N)cc(OC)c1 [Example 106] = 871
CCCCCCCCCCCCCCCCCCOC[C@H](COP(=O)(O)OC[C@H]1O[C@@](C#N)(c2ccc3c(N)ncnn23)[C@H](O)[C@@H]1O)Oc1ccc(C#N)c(OC)c1 [Example 74] = 196
CCCCCCCCCCCCCCCCCCOC[C@H](COP(=O)(O)OC[C@H]1O[C@@](C#N)(c2ccc3c(N)ncnn23)[C@H](O)[C@@H]1O)Oc1ccc(C#N)cn1 [Example 76] = 295
CCCCCCCCCCCCCCCCCCOC[C@H](COP(=O)(O)OC[C@H]1O[C@@](C#N)(c2ccc3c(N)ncnn23)[C@H](O)[C@@H]1O)OCc1cccc(C#N)n1 [Example 107] = 885

Please find the next compound below.
The compound identified as CCCCCCCCCCCCCCCCOC[C@H](COP(=O)(O)OC[C@H]1O[C@@](C#N)(c2ccc3c(N)ncnn23)[C@H](O)[C@@H]1O)OCc1cccc(C#N)c1 [Example 95] registered its CC50 at 252

----------
Quick list: CC50 per entry.
Experiment: MT4 cytotoxicity (CC50)
Details: human, MT4 cells, MT4 CC50, Table 2a
Write the answer as a number in nM, unit excluded.

In the examples that follow, each entry is paired with its recorded CC50.
CCCCCCCCCCCCCCCCCCOC[C@H](COP(=O)(O)OC[C@H]1O[C@@](C#N)(c2ccc3c(N)ncnn23)[C@H](O)[C@@H]1O)Oc1cccc(C#N)c1 = 188
CCCCCCCC/C=C\CCCCCCCCOC[C@H](COP(=O)(O)OC[C@H]1O[C@@](C#N)(c2ccc3c(N)ncnn23)[C@H](O)[C@@H]1O)OCc1cc(F)cc(C#N)c1 = 730
CC(C)CCCCCCCCCCCCCCOC[C@H](COP(=O)(O)OC[C@H]1O[C@@](C#N)(c2ccc3c(N)ncnn23)[C@H](O)[C@@H]1O)OCc1ccccc1 = 2200
CCCCCCCCCCCCCCCCCOC[C@H](COP(=O)(O)OC[C@H]1O[C@@](C#N)(c2ccc3c(N)ncnn23)[C@H](O)[C@@H]1O)OCc1cccc(C#N)c1 = 550
CCCCCCCCCCCCOCCCOP(=O)(O)OC[C@H]1O[C@@](C#N)(c2ccc3c(N)ncnn23)[C@H](O)[C@@H]1O = 50000

Please find the next molecule below.
The molecule identified as CCCCCCCCCCCCCCCCCCOC[C@H](COP(=O)(O)OC[C@H]1O[C@@](C#N)(c2ccc3c(N)ncnn23)[C@H](O)[C@@H]1O)OCc1cccc(C#N)c1 registered its CC50 at 348
